Recorded values, source patent US8309577B2.

Molecular target: α-7 nicotinic acetylcholine receptor channel expressed in HEK 293 cells (Rattus norvegicus, UniProt Q05941)
Construct: expressed in transfected cells
Sequence (Q05941 23-502): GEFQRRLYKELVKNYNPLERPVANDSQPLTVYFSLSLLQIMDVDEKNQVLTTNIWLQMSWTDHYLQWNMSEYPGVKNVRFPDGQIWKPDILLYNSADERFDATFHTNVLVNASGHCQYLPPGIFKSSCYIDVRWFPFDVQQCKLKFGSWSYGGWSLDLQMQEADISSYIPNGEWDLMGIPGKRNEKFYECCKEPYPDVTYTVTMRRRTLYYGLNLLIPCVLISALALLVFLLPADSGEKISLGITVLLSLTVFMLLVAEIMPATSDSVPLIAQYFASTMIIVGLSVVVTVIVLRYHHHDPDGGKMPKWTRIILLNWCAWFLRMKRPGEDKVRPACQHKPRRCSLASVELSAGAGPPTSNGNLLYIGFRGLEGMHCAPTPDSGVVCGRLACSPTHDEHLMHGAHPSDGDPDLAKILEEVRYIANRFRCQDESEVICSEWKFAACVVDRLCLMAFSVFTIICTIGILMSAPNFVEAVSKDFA
Test: Ca2+-sensitive fluorescence-based FLIPR assay, α7 nicotinic ACh receptor channel function (agonist)
Format: cell-based
Settings: FLIPR α7 activity rating (EC50, nM), Table 1; HEK 293 cells, agonist Ca2+ flux
QUANTITY: EC50

Look up EC50 for this molecule: `Fc1ccc2c(NC3=NC[C@@]4(CN5CCC4CC5)O3)n[nH]c2c1` < 100 nM

Now the same for `Cc1cc(NC2=NC[C@@]3(CN4CCC3CC4)O2)ncc1Cl` < 100 nM

Now the same for `c1ccc(-c2ccc(NC3=NC[C@@]4(CN5CCC4CC5)O3)nn2)cc1` 1000 to 100000 nM

Now the same for FC(F)Oc1ccc2nc(NC3=NCC4(CN5CCC4CC5)O3)sc2c1 (stereo not drawn) 100 to 1000 nM

Now the same for `COc1ncc2nc(NC3=NC[C@@]4(CN5CCC4CC5)O3)sc2n1` < 100 nM

Now the same for `Fc1cc(Cl)cnc1NC1=NC[C@@]2(CN3CCC2CC3)O1` < 100 nM

Now the same for c1cc2nc(NC3=NCC4(CN5CCC4CC5)O3)sc2cc1N1CCOCC1 (stereo not drawn) 1000 to 100000 nM

Now the same for CN1CCCC1c1ccc(NC2=NC[C@@]3(CN4CCC3CC4)O2)nc1 (stereo partly drawn) 1000 to 100000 nM

Now the same for `c1ccc2nc(NC3=NC[C@@]4(CN5CCC4CC5)O3)ccc2c1` < 100 nM

----------
Target: α-7 nicotinic acetylcholine receptor channel expressed in HEK 293 cells (Rattus norvegicus, UniProt Q05941)
Construct: expressed in transfected cells
Assay: Ca2+-sensitive fluorescence-based FLIPR assay, α7 nicotinic ACh receptor channel function (agonist)
Type: cell-based
Conditions: FLIPR α7 activity rating (EC50, nM), Table 1; HEK 293 cells, agonist Ca2+ flux
// reported EC50 per item

>  <COMPOUND>
c1cnc2ccc(NC3=NCC4(CN5CCC4CC5)O3)cc2c1 (stereo not shown) [Example 85]

>  <EC50>
1000 to 100000 nM

$$$$

Next item in the queue.
Look up EC50 for this compound: COc1ccc2nc(NC3=NCC4(CN5CCC4CC5)O3)sc2c1 (stereo not shown) [Example 5] 100 to 1000 nM

----------
Molecular target: α-7 nicotinic acetylcholine receptor channel expressed in HEK 293 cells (Rattus norvegicus)
Construct: expressed in transfected cells
Assay: Ca2+-sensitive fluorescence-based FLIPR assay, α7 nicotinic ACh receptor channel function (agonist)
Type: cell-based
Conditions: FLIPR α7 (EC50, nM), Table 1; HEK 293 cells, agonist Ca2+ flux
// reported log10 EC50 per item
In our notation, the value equals log10 of EC50 in nM.

Look up log10 EC50 for this compound: c1ccc2c(NC3=NC[C@@]4(CN5CCC4CC5)O3)n[nH]c2c1 [Example 165] 1.11

----------
Target: α-7 nicotinic acetylcholine receptor channel expressed in HEK 293 cells (Rattus norvegicus)
Construct: expressed in transfected cells
Test: Ca2+-sensitive fluorescence-based FLIPR assay, α7 nicotinic ACh receptor channel function (agonist)
Type: cell-based
Details: FLIPR α7 activity rating (EC50, nM), Table 1; HEK 293 cells, agonist Ca2+ flux
QUANTITY: EC50

>  <MOLECULE>
Brc1ccc2cc(NC3=NC[C@@]4(CN5CCC4CC5)O3)ncc2c1

>  <EC50>
100 to 1000 nM

$$$$
>  <MOLECULE>
Brc1ccc2nc(NC3=NCC4(CN5CCC4CC5)O3)sc2c1 (centres unmarked)

>  <EC50>
100 to 1000 nM

$$$$
>  <MOLECULE>
Cc1noc(NC2=NC[C@@]3(CN4CCC3CC4)O2)n1

>  <EC50>
100 to 1000 nM

$$$$
>  <MOLECULE>
COc1ccc2c(c1)c(NC1=NC[C@@]3(CN4CCC3CC4)O1)nn2C

>  <EC50>
1000 to 100000 nM

$$$$

Next item in the queue.
Look up EC50 for this molecule: `COc1ccc(-c2cc(NC3=NC[C@@]4(CN5CCC4CC5)O3)ncn2)cn1` < 100 nM

----------
Biological target: α-7 nicotinic acetylcholine receptor channel expressed in HEK 293 cells (Rattus norvegicus, UniProt Q05941)
Construct: expressed in transfected cells
Test: Ca2+-sensitive fluorescence-based FLIPR assay, α7 nicotinic ACh receptor channel function (agonist)
Format: cell-based
Conditions: FLIPR α7 activity rating (EC50, nM), Table 1; HEK 293 cells, agonist Ca2+ flux
// reported EC50 per item

>  <COMPOUND>
Clc1ccc(NC2=NC[C@@]3(CN4CCC3CC4)O2)nc1 [Example 214]

>  <EC50>
< 100 nM

$$$$
>  <COMPOUND>
N#Cc1ccc2nc(NC3=NCC4(CN5CCC4CC5)O3)sc2c1 (stereo not drawn) [Example 70]

>  <EC50>
100 to 1000 nM

$$$$

Look up EC50 for this compound: Cc1cnc(NC2=NC[C@@]3(CN4CCC3CC4)O2)c(C)n1 [Example 186] 100 to 1000 nM

Now the same for COc1ncc(-c2cc(NC3=NC[C@@]4(CN5CCC4CC5)O3)ncn2)cn1 [Example 245] < 100 nM

Now the same for c1ccc2[nH]c(NC3=NCC4(CN5CCC4CC5)O3)nc2c1 (single isomer, unassigned) [Example 8a] 100 to 1000 nM

----------
Biological target: α-7 nicotinic acetylcholine receptor channel expressed in HEK 293 cells (Rattus norvegicus)
Construct: expressed in transfected cells
Test: Ca2+-sensitive fluorescence-based FLIPR assay, α7 nicotinic ACh receptor channel function (agonist)
Format: cell-based
Conditions: FLIPR α7 activity rating (EC50, nM), Table Ib; HEK 293 cells, agonist Ca2+ flux
QUANTITY: EC50

These solved cases illustrate the format of a correct answer.
>  <MOLECULE>
Cc1nc(NC2=NC[C@@]3(CN4CCC3CC4)O2)cc2ccc(F)cc12

>  <QUANTITY>
EC50

>  <RESULT>
100 to 1000 nM

$$$$
>  <MOLECULE>
COc1ccc(-c2ccnc(NC3=NC[C@@]4(CN5CCC4CC5)O3)c2)cn1

>  <QUANTITY>
EC50

>  <RESULT>
< 100 nM

$$$$
>  <MOLECULE>
Clc1cccc2nc(NC3=NC[C@@]4(CN5CCC4CC5)O3)ncc12

>  <QUANTITY>
EC50

>  <RESULT>
< 100 nM

$$$$
>  <MOLECULE>
Cc1cc2cnc(NC3=NC[C@@]4(CN5CCC4CC5)O3)cc2cc1C

>  <QUANTITY>
EC50

>  <RESULT>
100 to 1000 nM

$$$$

Look up EC50 for this molecule: `Cc1nc(NC2=NC[C@@]3(CN4CCC3CC4)O2)ccc1Cl` < 100 nM

Now the same for `Cc1cn(-c2cc(NC3=NC[C@@]4(CN5CCC4CC5)O3)ncn2)cn1` < 100 nM

----------
// reported EC50 per item
Biological target: α-7 nicotinic acetylcholine receptor channel expressed in HEK 293 cells (Rattus norvegicus, UniProt Q05941)
Construct: expressed in transfected cells
Experiment: Ca2+-sensitive fluorescence-based FLIPR assay, α7 nicotinic ACh receptor channel function (agonist)
Assay type: cell-based
Details: FLIPR α7 activity rating (EC50, nM), Table 1; HEK 293 cells, agonist Ca2+ flux

>  <MOLECULE>
Clc1cccc2sc(NC3=NCC4(CN5CCC4CC5)O3)nc12 (single isomer, unassigned) [Example 7a]

>  <RESULT>
1000 to 100000 nM

$$$$
>  <MOLECULE>
FC(F)(F)COc1cc(NC2=NC[C@@]3(CN4CCC3CC4)O2)ncn1 [Example 228]

>  <RESULT>
< 100 nM

$$$$
>  <MOLECULE>
Brc1cnc(NC2=NC[C@@]3(CN4CCC3CC4)O2)nc1-c1cccnc1 [Example 230]

>  <RESULT>
< 100 nM

$$$$
>  <MOLECULE>
COc1ncccc1-c1ccnc(NC2=NC[C@@]3(CN4CCC3CC4)O2)c1 [Example 287]

>  <RESULT>
100 to 1000 nM

$$$$
>  <MOLECULE>
Clc1cccnc1NC1=NC[C@@]2(CN3CCC2CC3)O1 [Example 283]

>  <RESULT>
100 to 1000 nM

$$$$

Look up EC50 for this molecule: Cc1cc(NC2=NCC3(CN4CCC3CC4)O2)nc(C)n1 (racemic) [Example 123] 1000 to 100000 nM

Now the same for c1cc(NC2=NC[C@@]3(CN4CCC3CC4)O2)ccn1 [Example 235] 1000 to 100000 nM

Now the same for CC(C)c1cc2c(NC3=NC[C@@]4(CN5CCC4CC5)O3)ncnc2s1 [Example 223] 100 to 1000 nM

Now the same for Cc1nc2cc(NC3=NCC4(CN5CCC4CC5)O3)ccc2s1 (centres unmarked) [Example 63] 1000 to 100000 nM

Now the same for Cc1cccc2sc(NC3=NCC4(CN5CCC4CC5)O3)nc12 (single isomer, unassigned) [Example 6b] < 100 nM

Now the same for c1cc(-c2cc(NC3=NC[C@@]4(CN5CCC4CC5)O3)ncn2)ccn1 [Example 246] < 100 nM
